// % IL8 at 16 nM antibody lookup, one value per entry
# assay.target: human Tissue Factor (TF) (human, UniProt P13726 33-295)
# test.summary: cell-based or functional assay
quantity.kind: % IL8 at 16 nM antibody (%)

1) 43B7 (antibody, human IgG1, V domains shown) VH: QVQLQESGPGLVKPSQTLSLTCTVSGGSISSGQYWSWIRQHPGKGLEWIGEIYYSGSTRYNPSLKSRVTISVDTSKNQFSLKLSSVTAADTAVYYCARDAPYYYGGGYYYYMDVWGKGTTVTVSS VL: EIVLTQSPGTLSLSPGERATLSCRASESVDSSYLAWYQQKPGQAPRLLIYGADSRATGIPDRFSGSGSGTDFTLTISRLEPEDFAVYYCQQDGVVPYTFGGGTKVEIK: 8
2) 25G1 (antibody, human IgG1, V domains shown) VH: QVQLVQSGAEVKKPGASVKVSCKASGYTFRSYGISWVRQAPGQGLEWMGWVAPYSGNTNYAQKLQGRVTMTTDTSTSTAYMELRSLRSDDTAVYYCARDAGTYSPYGYGMDVWGQGTTVTVSS VL: DIQMTQSPSTLSASVGDRVTITCRASHSIDSWLAWYQQKPGKAPKLLIYKASYLESGVPSRFSGSGSGTEFTLTISSLQPDDFATYYCQLFQSLPPFTFGGGTKVEIK: 9

Numbers sourced from patent US20250361322A1.
